molecular target: WT CDPK1 (Plasmodium falciparum); assay: biochemical
Sequence (P62344 whole entry): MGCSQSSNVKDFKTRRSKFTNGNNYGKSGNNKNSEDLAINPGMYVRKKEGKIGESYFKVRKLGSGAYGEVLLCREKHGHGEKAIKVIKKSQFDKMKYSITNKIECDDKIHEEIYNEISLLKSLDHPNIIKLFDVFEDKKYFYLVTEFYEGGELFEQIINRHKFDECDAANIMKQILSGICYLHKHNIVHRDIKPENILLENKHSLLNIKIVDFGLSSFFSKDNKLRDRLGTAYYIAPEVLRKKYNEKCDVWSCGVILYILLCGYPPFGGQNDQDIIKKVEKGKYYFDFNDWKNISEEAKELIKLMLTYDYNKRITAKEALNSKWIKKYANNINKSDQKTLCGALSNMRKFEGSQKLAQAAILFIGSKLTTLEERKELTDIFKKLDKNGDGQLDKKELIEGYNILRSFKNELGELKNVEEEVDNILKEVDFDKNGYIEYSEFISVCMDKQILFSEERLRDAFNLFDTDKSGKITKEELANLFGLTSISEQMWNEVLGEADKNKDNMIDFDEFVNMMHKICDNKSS
experimental_endpoint: pIC50
By convention, pIC50 is the negative base-10 log of a molar concentration.

Requested field: pIC50. Item: `CC(C)(C)n1nc(-c2cccc3ccccc23)c2c(N)ncnc21`
5.22

====

biological target: PfHSP90-NTD (Plasmodium falciparum, UniProt Q8IC05); test: Tryptophan fluorescence binding, PfHSP90 N-terminal domain
Sequence (Q8IC05 entry or part of it): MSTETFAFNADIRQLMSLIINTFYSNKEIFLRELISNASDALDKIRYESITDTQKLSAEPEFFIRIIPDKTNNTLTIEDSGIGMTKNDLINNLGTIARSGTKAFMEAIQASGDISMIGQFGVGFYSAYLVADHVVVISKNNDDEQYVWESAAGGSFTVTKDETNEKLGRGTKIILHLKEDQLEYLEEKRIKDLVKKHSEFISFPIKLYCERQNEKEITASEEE
experimental_endpoint: pKd
By convention, pKd is the negative base-10 log of a molar concentration.

Please state recorded pKd (tested on PfHSP90-NTD (Plasmodium falciparum, UniProt Q8IC05)) of `CC(C)CCNc1ccc(-c2cnc3ccc(NC4CCN(C)CC4)nn23)cn1`
4.97

====

tested on: P. falciparum 3D7; experiment: SYBR green I growth assay, wild-type parasites; assay type: cell-based, Plasmodium falciparum; settings: Plasmodium falciparum, 3D7, 48 h, read-out: EC50 48 hours
experimental_endpoint: EC50 (nM)
Express your answer in nM, writing the number without its unit.

Requested field: EC50. Item: NC1CCC(Nc2ccc3ncc(-c4cnc(Nc5ccccn5)c(F)c4)n3n2)CC1 (stereo not shown)
300

====

biological target: PfPKG T618Q (Plasmodium falciparum, UniProt Q8I719, T618Q); construct: plasmids (pTrcHisC) encoding full-length PfPKG and PfPKG T618Q with N-terminal His tags; His tag (N); made in house; host or cells: E. coli Rosetta2(DE3); experiment: biochemical; type: biochemical; settings: Table S2; read-out: Enzyme inhibition IC50, PKG T618Q
Sequence (Q8I719 whole entry T618Q): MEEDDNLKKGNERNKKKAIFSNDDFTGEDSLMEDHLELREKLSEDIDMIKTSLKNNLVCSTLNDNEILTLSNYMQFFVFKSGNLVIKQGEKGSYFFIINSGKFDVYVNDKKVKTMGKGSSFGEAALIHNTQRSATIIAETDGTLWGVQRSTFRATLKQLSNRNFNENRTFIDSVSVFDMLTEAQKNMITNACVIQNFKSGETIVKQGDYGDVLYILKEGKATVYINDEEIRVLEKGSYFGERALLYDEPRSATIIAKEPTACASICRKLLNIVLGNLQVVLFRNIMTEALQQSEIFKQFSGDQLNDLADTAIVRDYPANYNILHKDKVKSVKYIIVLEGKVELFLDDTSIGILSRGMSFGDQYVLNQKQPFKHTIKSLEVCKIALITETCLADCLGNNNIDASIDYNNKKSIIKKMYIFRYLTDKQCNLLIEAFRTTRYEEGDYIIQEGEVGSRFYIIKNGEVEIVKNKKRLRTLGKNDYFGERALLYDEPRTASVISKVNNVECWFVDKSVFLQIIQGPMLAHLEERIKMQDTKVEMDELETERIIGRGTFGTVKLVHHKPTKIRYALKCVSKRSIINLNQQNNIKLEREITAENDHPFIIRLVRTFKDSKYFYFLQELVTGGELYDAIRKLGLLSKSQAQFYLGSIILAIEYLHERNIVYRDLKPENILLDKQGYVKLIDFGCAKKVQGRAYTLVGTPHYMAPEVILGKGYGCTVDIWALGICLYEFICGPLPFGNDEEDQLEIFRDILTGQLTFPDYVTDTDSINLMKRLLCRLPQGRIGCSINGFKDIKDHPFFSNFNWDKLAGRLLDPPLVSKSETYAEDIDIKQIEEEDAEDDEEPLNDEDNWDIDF
experimental_endpoint: pIC50
By convention, pIC50 is the negative base-10 log of a molar concentration.

Please state recorded pIC50 (tested on PfPKG T618Q (Plasmodium falciparum, UniProt Q8I719, T618Q)) of CN1CCC(Nc2ccc3ncc(-c4cc(F)c(Nc5ncccc5F)c(F)c4)n3n2)CC1 [Compound 8]
4.19

Please state recorded pIC50 (tested on PfPKG T618Q (Plasmodium falciparum, UniProt Q8I719, T618Q)) of CC(C)CCNc1ncc(-c2cnc3ccc(NC4CCNCC4)nn23)cn1 [Compound 29]
6.06

Please state recorded pIC50 (tested on PfPKG T618Q (Plasmodium falciparum, UniProt Q8I719, T618Q)) of CC(C)CCNc1ncc(-c2cnc3ccc(NC4CCN(C)CC4)nn23)cn1 [Compound 23]
5.32

Please state recorded pIC50 (tested on PfPKG T618Q (Plasmodium falciparum, UniProt Q8I719, T618Q)) of CN1CCC(Nc2ccc3ncc(-c4ccc(Nc5ncccc5F)nc4)n3n2)CC1 [Compound 17]
4.92

Please state recorded pIC50 (tested on PfPKG T618Q (Plasmodium falciparum, UniProt Q8I719, T618Q)) of Fc1cc(-c2cnc3ccc(NC4CCNCC4)nn23)cnc1Nc1ccccn1 [Compound 25]
5.00

Please state recorded pIC50 (tested on PfPKG T618Q (Plasmodium falciparum, UniProt Q8I719, T618Q)) of Fc1cccnc1Nc1ccc(-c2cnc3ccc(NC4CCNCC4)nn23)cn1 [Compound 24]
5.90

Please state recorded pIC50 (tested on PfPKG T618Q (Plasmodium falciparum, UniProt Q8I719, T618Q)) of CN1CCC(Nc2ccc3ncc(-c4cnc(Nc5ncccc5F)nc4)n3n2)CC1 [Compound 33]
5.00

Please state recorded pIC50 (tested on PfPKG T618Q (Plasmodium falciparum, UniProt Q8I719, T618Q)) of NC1CCC(Nc2ccc3ncc(-c4ccc(Nc5ncccc5F)cc4)n3n2)CC1 (centres unmarked) [Compound 9]
4.77

Please state recorded pIC50 (tested on PfPKG T618Q (Plasmodium falciparum, UniProt Q8I719, T618Q)) of Fc1cc(-c2cnc3ccc(NC4CCNCC4)nn23)cnc1Nc1cnccn1 [Compound 27]
5.00

Please state recorded pIC50 (tested on PfPKG T618Q (Plasmodium falciparum, UniProt Q8I719, T618Q)) of CN1CCC(Nc2ccc3ncc(-c4ccc(Nc5ncccc5F)cc4)n3n2)CC1 [Compound 18]
4.80

Please state recorded pIC50 (tested on PfPKG T618Q (Plasmodium falciparum, UniProt Q8I719, T618Q)) of CN1CCC(Nc2ccc3ncc(-c4ccc(Nc5ccccn5)c(F)c4)n3n2)CC1 [Compound 16]
4.97

Please state recorded pIC50 (tested on PfPKG T618Q (Plasmodium falciparum, UniProt Q8I719, T618Q)) of CN1CCC(Nc2ccc3ncc(-c4cc(F)c(Nc5ccccn5)c(F)c4)n3n2)CC1 [Compound 2]
4.89

Please state recorded pIC50 (tested on PfPKG T618Q (Plasmodium falciparum, UniProt Q8I719, T618Q)) of CC(C)CCNc1ncc(-c2cnc3ccc(NC4CCN(C)C4)nn23)cn1 (centres unmarked) [Compound 31]
5.23

Please state recorded pIC50 (tested on PfPKG T618Q (Plasmodium falciparum, UniProt Q8I719, T618Q)) of c1ccc(Nc2ncc(-c3cnc4ccc(NC5CCNCC5)nn34)cn2)nc1 [Compound 26]
5.48

Please state recorded pIC50 (tested on PfPKG T618Q (Plasmodium falciparum, UniProt Q8I719, T618Q)) of Fc1cc(-c2cnc3ccc(NC4CCNCC4)nn23)ccc1Nc1ccccn1 [Compound 21]
5.42

Please state recorded pIC50 (tested on PfPKG T618Q (Plasmodium falciparum, UniProt Q8I719, T618Q)) of Fc1cccnc1Nc1ncc(-c2cnc3ccc(NC4CCNCC4)nn23)cn1 [Compound 32]
5.21

Please state recorded pIC50 (tested on PfPKG T618Q (Plasmodium falciparum, UniProt Q8I719, T618Q)) of Fc1cccnc1Nc1ccc(-c2cnc3ccc(NC4CCNCC4)nn23)cc1 [Compound 13]
5.43

Please state recorded pIC50 (tested on PfPKG T618Q (Plasmodium falciparum, UniProt Q8I719, T618Q)) of CC(C)CCNc1ccc(-c2cnc3ccc(NC4CCNCC4)nn23)cn1 [Compound 11]
3.59

Please state recorded pIC50 (tested on PfPKG T618Q (Plasmodium falciparum, UniProt Q8I719, T618Q)) of CN(C)C1CCN(c2ccc3ncc(-c4cnc(Nc5ncccc5F)nc4)n3n2)C1 (centres unmarked) [Compound 35]
3.28

Please state recorded pIC50 (tested on PfPKG T618Q (Plasmodium falciparum, UniProt Q8I719, T618Q)) of CN1CCC(Nc2ccc3ncc(-c4cnc(Nc5cnccn5)c(F)c4)n3n2)CC1 [Compound 15]
4.29

====

target: PfPKG T618Q (Plasmodium falciparum, UniProt Q8I719, T618Q); construct: plasmids (pTrcHisC) encoding full-length PfPKG and PfPKG T618Q with N-terminal His tags; His tag (N); made in house; host or cells: E. coli Rosetta2(DE3); assay: biochemical; format: biochemical; conditions: Table S2
Categories are defined by ranges of Selectivity PKG T618Q/PKG, namely group A (below 30), group B (30 to below 900), group C (900 or more)

State the band of `Fc1cc(-c2cnc3ccc(NC4CCNCC4)nn23)cnc1Nc1cnccn1`
group B

State the band of `c1ccc(Nc2ncc(-c3cnc4ccc(NC5CCNCC5)nn34)cn2)nc1`
group B

State the band of `Fc1cccnc1Nc1ccc(-c2cnc3ccc(NC4CCNCC4)nn23)cn1`
group A

State the band of `CC(C)CCNc1ccc(-c2cnc3ccc(NC4CCNCC4)nn23)cn1`
group C

State the band of `Fc1cccnc1Nc1ncc(-c2cnc3ccc(NC4CCNCC4)nn23)cn1`
group C

State the band of CC(C)CCNc1ncc(-c2cnc3ccc(NC4CCN(C)C4)nn23)cn1 (stereo not drawn)
group A

State the band of Fc1cccnc1Nc1ncc(-c2cnc3ccc(NC4CCC(N5CCNCC5)CC4)nn23)cn1 (stereo not drawn)
group C

State the band of `CN1CCC(Nc2ccc3ncc(-c4cnc(Nc5cnccn5)c(F)c4)n3n2)CC1`
group B

====

biological target: PfPKG (Plasmodium falciparum, UniProt Q8I719); construct: plasmids (pTrcHisC) encoding full-length PfPKG and PfPKG T618Q with N-terminal His tags; His tag (N); made in house; host or cells: E. coli Rosetta2(DE3); experiment: Microfluidic fluorescent shift assay of cGMP-dependent protein kinase activity; assay type: biochemical; details: Table S2; read-out: Enzyme inhibition IC50, PKG
Sequence (Q8I719 whole entry): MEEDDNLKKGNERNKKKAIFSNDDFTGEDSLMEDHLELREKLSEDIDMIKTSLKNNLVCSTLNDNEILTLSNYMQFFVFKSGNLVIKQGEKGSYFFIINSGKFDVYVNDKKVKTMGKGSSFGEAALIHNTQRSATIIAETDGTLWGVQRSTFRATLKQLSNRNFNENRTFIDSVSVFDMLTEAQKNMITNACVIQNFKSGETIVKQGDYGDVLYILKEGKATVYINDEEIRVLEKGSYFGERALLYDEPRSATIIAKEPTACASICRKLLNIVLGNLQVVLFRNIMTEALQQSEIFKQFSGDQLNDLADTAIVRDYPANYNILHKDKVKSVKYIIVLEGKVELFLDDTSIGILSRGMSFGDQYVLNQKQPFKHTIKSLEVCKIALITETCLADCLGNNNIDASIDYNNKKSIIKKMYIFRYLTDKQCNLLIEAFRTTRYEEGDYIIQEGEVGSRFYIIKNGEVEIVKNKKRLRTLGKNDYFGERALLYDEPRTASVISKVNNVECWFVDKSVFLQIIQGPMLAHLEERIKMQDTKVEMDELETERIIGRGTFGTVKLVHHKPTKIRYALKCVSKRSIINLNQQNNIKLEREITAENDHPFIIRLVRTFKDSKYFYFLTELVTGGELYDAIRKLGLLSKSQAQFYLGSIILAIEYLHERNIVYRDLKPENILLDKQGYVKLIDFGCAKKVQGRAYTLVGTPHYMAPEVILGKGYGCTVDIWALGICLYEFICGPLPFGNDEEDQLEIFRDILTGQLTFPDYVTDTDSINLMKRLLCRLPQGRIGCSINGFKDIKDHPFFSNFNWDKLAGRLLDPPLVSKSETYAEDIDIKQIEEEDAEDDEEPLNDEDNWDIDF
experimental_endpoint: IC50 (nM)
Express your answer in nM, writing the number without its unit.

Please state recorded IC50 (tested on PfPKG (Plasmodium falciparum, UniProt Q8I719)) of CN(C)C1CCN(c2ccc3ncc(-c4cnc(Nc5ncccc5F)nc4)n3n2)C1 (stereo not drawn) [Compound 35]
50

Please state recorded IC50 (tested on PfPKG (Plasmodium falciparum, UniProt Q8I719)) of CC(C)CCNc1ncc(-c2cnc3ccc(NC4CCN(C)C4)nn23)cn1 (stereo not drawn) [Compound 31]
287

Please state recorded IC50 (tested on PfPKG (Plasmodium falciparum, UniProt Q8I719)) of CN1CCC(Nc2ccc3ncc(-c4cc(F)c(Nc5ccccn5)c(F)c4)n3n2)CC1 [Compound 2]
69

Please state recorded IC50 (tested on PfPKG (Plasmodium falciparum, UniProt Q8I719)) of Fc1cccnc1Nc1ccc(-c2cnc3ccc(NC4CCNCC4)nn23)cn1 [Compound 24]
62

Please state recorded IC50 (tested on PfPKG (Plasmodium falciparum, UniProt Q8I719)) of CN1CCC(Nc2ccc3ncc(-c4ccc(Nc5ccccn5)c(F)c4)n3n2)CC1 [Compound 16]
88

Please state recorded IC50 (tested on PfPKG (Plasmodium falciparum, UniProt Q8I719)) of c1ccc(Nc2ncc(-c3cnc4ccc(NC5CCNCC5)nn34)cn2)nc1 [Compound 26]
20
